System: SK-MEL-28 melanoma
protocolText: NCI tumour cell line growth inhibition, 48 h
assayReadout: GI50

Could you tell me which GI50 is on file for CNCc1cccc2c1OCCOCCOCCC(C)S(=O)(=O)c1ccc(cc1)-c1cnc(N)c(n1)C(=O)N2 (stereo not given) ? 1.77 µM

Could you tell me which GI50 is on file for COC(=O)c1ccc2[nH]c(O)c(C(=Nc3ccc(N(C)C(=O)CN4CCN(C)CC4)cc3)c3ccccc3)c2c1 ? 1.62 µM

Could you tell me which GI50 is on file for Cc1cc(Nc2ccc(Cl)cc2)nc(NCCCNc2ccnc3cc(Cl)ccc23)n1 ? 1.81 µM

Could you tell me which GI50 is on file for CCN1CCN(c2nc(NNC(=O)c3ccccc3)nc(N3CCN(C(c4ccccc4)c4ccccc4)CC3)n2)CC1 ? 1.8 µM

Could you tell me which GI50 is on file for CCN(CC)CCOc1ccc2c(C)c(C(=O)OC)oc2c1C(=O)/C=C/c1ccc(OC)cc1 ? 2.89 µM

Could you tell me which GI50 is on file for C#Cc1cccc(NC(=O)C2CCCN(C(=O)CCl)C2)c1 (stereo not given) ? > 82.5 µM

Could you tell me which GI50 is on file for OCC#Cc1ccccc1C#Cc1ccc(C#Cc2ccccc2)cc1 ? 38.3 µM

Could you tell me which GI50 is on file for CC(=O)[O-].[Mn+3].[O-]c1ccc(Cl)cc1C=NCCN=Cc1cc(Cl)ccc1[O-] ? > 100 µM

Could you tell me which GI50 is on file for COc1ccc(Cc2nc3cc(OC)c(OC)cc3c(=O)[nH]2)cc1 ? 11.5 µM

Could you tell me which GI50 is on file for [Cl-].[Gd+3].[O-]/N=C(\c1ccccc1)c1ccccn1.[O-]/N=C(\c1ccccc1)c1ccccn1.[O-]/N=C(\c1ccccc1)c1ccccn1 ? 61.6 µM

Could you tell me which GI50 is on file for Fc1ccc(-c2nn3c(COc4ccc(Cl)cc4)nnc3s2)cc1Oc1ccccc1 ? 37 µM

Could you tell me which GI50 is on file for COc1cc2cc3c(c(O)c2c(O)c1-c1c(OC)cc2cc4c(c(O)c2c1O)C(=O)O[C@H](C)C4)C(=O)O[C@H](C)C3 ? 33 µM

Could you tell me which GI50 is on file for O=C1CCS/C(=N/S(=O)(=O)c2ccc(N3N=C4c5ccccc5CC4C3c3cccs3)cc2)N1Cc1ccccc1 (stereo not given) ? 42.1 µM

Could you tell me which GI50 is on file for COc1cc(OC)cc(-c2ccc(-c3ccc(C(=N)N)cn3)s2)c1 ? 1.84 µM

Could you tell me which GI50 is on file for COc1ccc(/C=C/C(C)=N/OCC(=O)Nc2ccc(Cl)cc2)cc1 ? 3.17 µM

Could you tell me which GI50 is on file for N#CCC1(n2cc(-c3ncnc4[nH]ccc34)cn2)CN(C2CCN(C(=O)c3ccnc(C(F)(F)F)c3F)CC2)C1 ? > 100 µM

Could you tell me which GI50 is on file for CC1=C2[C@@H](CC1)[C@]1(C)O[C@@](C3CC3)(C[C@H]1OC(=O)CO)[C@H]2OC(=O)/C=C/c1ccccc1 ? 18.6 µM

Could you tell me which GI50 is on file for CC1=C(CNO)C2=C(C)C3(CC3)[C@@](C)(O)C(=O)C2=C1 ? 2.37 µM

Could you tell me which GI50 is on file for COc1cc2c(cc1OCCCOc1ccc(-c3cc4ccccc4c4ccccc34)cc1)N=C[C@@H]1CCCN1C2=O ? 0.555 µM

Could you tell me which GI50 is on file for O=c1nc2[nH]c3c(-c4n[nH]c(=O)[nH]c4=O)cccc3c2n[nH]1 ? > 100 µM

----------
Test system: M14 melanoma
protocolText: NCI tumour cell line growth inhibition, 48 h
assayReadout: GI50

Could you tell me which GI50 is on file for N#CC(NC(=O)CCl)=C(Cl)Cl ? 1.34 µM

Could you tell me which GI50 is on file for CC1(C)CC[C@]2(C(=O)O)CC[C@]3(C)C(=CC[C@@H]4[C@@]5(C)C/C(=C/c6ccco6)C(=O)C(C)(C)[C@@H]5CC[C@]43C)[C@@H]2C1 ? 4.51 µM

Could you tell me which GI50 is on file for [Cl-].[Gd+3].[O-]/N=C(\c1ccccc1)c1ccccn1.[O-]/N=C(\c1ccccc1)c1ccccn1.[O-]/N=C(\c1ccccc1)c1ccccn1 ? 51.4 µM

Could you tell me which GI50 is on file for CC(=O)[O-].[Mn+3].[O-]c1ccc(Cl)cc1C=NCCN=Cc1cc(Cl)ccc1[O-] ? 71.6 µM

Could you tell me which GI50 is on file for COc1ccc(/C=C/C(C)=N/OCC(=O)Nc2ccc(Cl)cc2)cc1 ? 3.01 µM

Could you tell me which GI50 is on file for N#CCC1(n2cc(-c3ncnc4[nH]ccc34)cn2)CN(C2CCN(C(=O)c3ccnc(C(F)(F)F)c3F)CC2)C1 ? > 100 µM

Could you tell me which GI50 is on file for COc1ccc(/C(C)=C(\c2ccc(Cl)cc2)c2ccc(OCCN3CCCCCC3)cc2)cc1F ? 2.74 µM

Could you tell me which GI50 is on file for C=CCN=C(N/N=C/c1ccc([N+](=O)[O-])o1)NS(=O)(=O)c1cc(C(=O)Nc2ccccc2)c(Cl)cc1SCC(N)=O ? 69.8 µM

----------
Tested on: UACC-62 melanoma
protocolText: NCI tumour cell line growth inhibition, 48 h
Where a SMILES comes first, the peptide text is derived from it. The star is where a group is joined. Cbz = O=C(OCc1ccccc1)*; Boc = CC(C)(C)OC(=O)*; OSu = O=C1CCC(=O)N1O*; Bn = c1ccc(C*)cc1
assayReadout: TGI

Could you tell me which TGI is on file for CC(=O)N[C@@H](Cc1ccc(O)cn1)C(=O)NC1CCCCC1 ? > 100 µM

Could you tell me which TGI is on file for Oc1ccc(SCc2cc(O)ccc2O)cc1 ? 53.2 µM

Could you tell me which TGI is on file for CC(CC=O)Nc1nn2c(=O)c3ccccc3nc2s1 (stereo unspecified) ? > 100 µM

Could you tell me which TGI is on file for C=C1CC/C=C(\C)CC[C@H](C(=C)C)[C@@H](O)/C=C(/CO)CCC1O (stereo partly specified) ? > 100 µM

Could you tell me which TGI is on file for O=C(O)C1(C(O)c2ccccc2)SCCCS1 (stereo unspecified) ? > 10 µM

Could you tell me which TGI is on file for CC(=O)OCC1OC(n2c(=S)n(-c3ccccc3)c(=O)c3cc(Br)cc(Br)c32)C(OC(C)=O)C(OC(C)=O)C1OC(C)=O (stereo unspecified) ? > 100 µM

Could you tell me which TGI is on file for S=c1[nH]n2c(COc3cc(Cl)c(OCc4nnc5sc(=S)[nH]n45)cc3Cl)nnc2s1 ? 83.9 µM

Could you tell me which TGI is on file for COc1ccc(/C=N/NC(=S)Nc2cc(C)ccc2OC)cc1 ? > 100 µM

Could you tell me which TGI is on file for C#CCOC(=O)C(=[N+]=[N-])C(=O)CC(C)C ? > 10 µM

Could you tell me which TGI is on file for CCCCCCCc1ccc(-c2nnc(N=Nc3ccc(OCCCCC)cc3)s2)s1 ? > 100 µM

Could you tell me which TGI is on file for CC(C)(C)OC(=O)NC(Cc1ccc(OCc2ccccc2)cc1)C(=O)NC(CCCCNC(=O)OCc1ccccc1)C(=O)NC(CCCCNC(=O)OCc1ccccc1)C(=O)ON1C(=O)CCC1=O (stereo unspecified) (Boc-Tyr(Bn)-Lys(Cbz)-Lys(Cbz)-OSu; configuration not given here) ? 34.6 µM

----------
System: NCI-H226 lung
protocolText: NCI tumour cell line growth inhibition, 48 h
Parameter threshold = 20 µM. Response is Fulfilled when TGI meets or exceeds it, else Not fulfilled.

Item O=C(OC[C@@H]1CO1)c1cccc2c(=O)c3ccccc3[nH]c12 with TGI of 20 µM or above? Not fulfilled

Item C[C@]12CCC3=NCCN3C1=CC[C@@H]1[C@@H]2CC[C@@]2(C)[C@H]1CC[C@]2(C)O with TGI of 20 µM or above? Fulfilled

Item O=C1C=C/C(=C/[C@H]2SSC=C[C@]23C=CC(=O)C3)C1 with TGI of 20 µM or above? Fulfilled

Item CCCCCCCCCCCCCCCC(=O)OCC1OC(n2cc(F)c(=O)[nH]c2=O)C(NC(=O)N(CCCl)N=O)C(O)C1O (stereo not given) with TGI of 20 µM or above? Fulfilled

Item CC(C)(CN1CCCCC1)C(=O)CC(SCCS(=O)(=O)O)c1ccc(Cl)cc1 (stereo not given) with TGI of 20 µM or above? Fulfilled

----------
Provide the reported TGI of each item.
System: HCT-15 colon
protocolText: NCI tumour cell line growth inhibition, 48 h

Could you tell me which TGI is on file for C#CC#CC#CC#CC#CC#CC#CC#CC[C@@H]1OC[C@@H](COC(=O)O[C@@H](C(=O)O[C@H]2C[C@@]3(O)[C@@H](OC(=O)c4ccccc4)[C@@H]4[C@]5(OC(C)=O)CO[C@@H]5C[C@H](O)[C@@]4(C)C(=O)[C@H](OC(C)=O)C(=C2C)C3(C)C)[C@@H](NC(=O)c2ccccc2)c2ccccc2)O1 ? > 33.3 µM

Could you tell me which TGI is on file for Cc1ccc2nc(C(=O)O)c(=O)[nH]c2c1 ? > 100 µM

Could you tell me which TGI is on file for COc1cc(/C=C2/Oc3c(OC)cccc3C2=O)ccc1O ? > 100 µM
